- Tested on: Saccharomyces cerevisiae;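 note: PSI is a weighted mean of sequencing reads over stability bins, variants kept only with over 10 reads, mCherry proximal and sfGFP distal, peptide attached via GGGS linker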
- assay_comment: protein stability index of tFT-peptide fusion (C-terminal peptide) (PSI (0-1 scale)); higher = more stable (slower turnover)
- protocol_conditions: genetic background: cdc53-1; temperature: 37 C
Note: every record was labeled by where its protein stability index sits among band A: < 0.4; band B: ≥ 0.4 and < 0.6; band C: ≥ 0.6

Use these answered entries as a reference point.
SEVMVGLRLTLN band C
FSFSFYFALASF band B
DFLSGRCIFFYV band C
RFFKMREAIRIS band B
GRGVRLRVRLLL band C

**Q:** The entry to classify is "FVLFCWFFCIVW" ; which class holds it?
**A:** band A

**Q:** What about this sequence? "PSFLAIRVCLLV"
**A:** band A

**Q:** Try this sequence too: "FLCLLFYLSFFS"
**A:** band B

**Q:** Can you check "EFFILYFFLKVL" next?
**A:** band A

**Q:** "FVFCGVVFLFLL" , same question.
**A:** band B

**Q:** Lookup "FHSALIAIAAYV"
**A:** band A

**Q:** Proceed to "PLPSRLRRFVPV"
**A:** band C
